test-details: Terminal half life in Sprague-Dawley rat at 10 mg/kg, po
Assay type: ADME, organism-based
experimental-context: in vivo, read-out: beta t1/2
quantity: half-life (min)
Write the answer as a number in min, unit excluded.

Task item: Using the record for CC(C)Cc1cc(CNS(=O)(=O)c2cccc(F)c2)nn1-c1ccccc1 , state its measured half-life.
Reply: 66.8

###

target-entity: CYP2D6 (Homo sapiens)
test-details: Inhibition of human CYP2D6 assessed as remaining activity at 10 uM using vivid CYP450 substrate measured after 15 mins by fluorescence assay relative to quinidine
Assay type: ADME
experimental-context: probe vivid CYP450 substrate, read-out: Activity
Recorded activity at 0.25 h, 10 µM for the following molecules
Write the answer as a number in %, unit excluded.

sample_smiles=CC(C)Cc1cc(CNS(=O)(=O)c2cccc(F)c2)nn1-c1ccccc1 target_entity="CYP2D6 (Homo sapiens)" experimental_value=204
sample_smiles=CC(C)Cc1cc(CNS(=O)(=O)c2ccccc2)nn1-c1ccccc1 target_entity="CYP2D6 (Homo sapiens)" experimental_value=208

Task item: Using the record for CC(C)Cc1cc(CNS(=O)(=O)CCc2ccccc2)nn1-c1ccccc1 , state its measured activity at 0.25 h, 10 µM.
Reply: 45.2

###

target-entity: Voltage-dependent T-type calcium channel subunit alpha-1G (Homo sapiens, UniProt O43497)
Sequence (O43497 whole entry): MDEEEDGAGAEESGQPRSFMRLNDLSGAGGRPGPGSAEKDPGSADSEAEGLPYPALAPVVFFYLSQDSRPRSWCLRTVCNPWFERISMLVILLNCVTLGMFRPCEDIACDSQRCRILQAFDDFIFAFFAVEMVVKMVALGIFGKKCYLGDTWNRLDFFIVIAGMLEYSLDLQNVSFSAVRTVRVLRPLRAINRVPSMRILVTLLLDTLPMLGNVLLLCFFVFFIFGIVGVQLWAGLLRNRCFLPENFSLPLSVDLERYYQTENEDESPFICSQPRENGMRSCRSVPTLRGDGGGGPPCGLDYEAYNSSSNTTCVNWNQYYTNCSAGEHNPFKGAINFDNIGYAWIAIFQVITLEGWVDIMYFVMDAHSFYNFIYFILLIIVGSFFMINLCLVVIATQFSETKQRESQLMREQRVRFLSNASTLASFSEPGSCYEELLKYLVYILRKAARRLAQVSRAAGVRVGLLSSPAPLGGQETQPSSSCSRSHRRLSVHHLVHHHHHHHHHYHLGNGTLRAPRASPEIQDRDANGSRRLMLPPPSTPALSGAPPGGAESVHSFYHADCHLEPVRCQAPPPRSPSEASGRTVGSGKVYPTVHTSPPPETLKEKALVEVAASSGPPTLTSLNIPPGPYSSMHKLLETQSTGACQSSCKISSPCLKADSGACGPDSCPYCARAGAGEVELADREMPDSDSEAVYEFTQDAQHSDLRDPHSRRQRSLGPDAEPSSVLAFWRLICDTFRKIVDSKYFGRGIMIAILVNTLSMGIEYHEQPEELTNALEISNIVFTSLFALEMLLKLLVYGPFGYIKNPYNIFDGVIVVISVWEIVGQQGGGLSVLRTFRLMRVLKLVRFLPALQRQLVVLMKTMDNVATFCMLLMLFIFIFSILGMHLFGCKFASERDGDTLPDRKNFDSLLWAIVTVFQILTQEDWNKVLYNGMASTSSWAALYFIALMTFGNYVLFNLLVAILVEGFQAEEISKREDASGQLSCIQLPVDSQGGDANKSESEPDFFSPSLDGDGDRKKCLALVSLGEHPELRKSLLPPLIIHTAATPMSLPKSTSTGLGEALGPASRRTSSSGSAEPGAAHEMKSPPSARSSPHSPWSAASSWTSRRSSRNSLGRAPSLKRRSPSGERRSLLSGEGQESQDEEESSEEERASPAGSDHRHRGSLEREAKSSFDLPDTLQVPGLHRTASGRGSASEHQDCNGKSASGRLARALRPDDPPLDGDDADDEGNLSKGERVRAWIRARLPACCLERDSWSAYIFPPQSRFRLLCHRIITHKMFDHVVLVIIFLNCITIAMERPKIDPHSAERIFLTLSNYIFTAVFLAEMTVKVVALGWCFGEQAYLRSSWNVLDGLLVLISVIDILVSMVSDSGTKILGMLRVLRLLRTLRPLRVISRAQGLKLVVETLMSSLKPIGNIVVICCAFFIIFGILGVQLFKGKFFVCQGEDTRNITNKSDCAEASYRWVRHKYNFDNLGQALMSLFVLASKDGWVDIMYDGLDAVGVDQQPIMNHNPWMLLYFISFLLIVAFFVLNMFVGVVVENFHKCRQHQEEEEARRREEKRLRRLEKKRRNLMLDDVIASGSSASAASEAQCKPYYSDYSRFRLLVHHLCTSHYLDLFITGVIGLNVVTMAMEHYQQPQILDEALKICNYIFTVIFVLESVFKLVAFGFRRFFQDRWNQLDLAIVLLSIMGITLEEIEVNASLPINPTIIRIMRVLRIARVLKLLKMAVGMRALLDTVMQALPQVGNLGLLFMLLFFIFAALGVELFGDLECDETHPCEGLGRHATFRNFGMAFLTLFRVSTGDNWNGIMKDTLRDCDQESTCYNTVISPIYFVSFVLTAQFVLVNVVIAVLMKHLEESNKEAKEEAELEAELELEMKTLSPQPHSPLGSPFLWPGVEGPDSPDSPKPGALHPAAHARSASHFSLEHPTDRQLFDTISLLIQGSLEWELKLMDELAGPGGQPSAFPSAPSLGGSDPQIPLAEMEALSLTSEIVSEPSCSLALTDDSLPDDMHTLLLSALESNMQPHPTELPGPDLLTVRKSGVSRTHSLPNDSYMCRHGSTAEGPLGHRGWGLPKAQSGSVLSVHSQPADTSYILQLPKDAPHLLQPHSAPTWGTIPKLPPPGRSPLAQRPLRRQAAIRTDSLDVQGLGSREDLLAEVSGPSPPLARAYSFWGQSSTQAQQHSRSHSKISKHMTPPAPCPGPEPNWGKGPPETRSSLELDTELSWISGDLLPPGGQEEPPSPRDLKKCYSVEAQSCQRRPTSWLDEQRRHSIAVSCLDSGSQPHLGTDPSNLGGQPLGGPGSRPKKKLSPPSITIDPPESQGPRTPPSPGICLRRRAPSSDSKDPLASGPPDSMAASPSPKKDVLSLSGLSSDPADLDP
test-details: Inhibition of Cav3.1 alpha1G (unknown origin) expressed in HEK293 cells by whole-cell patch clamp method
quantity: IC50 (µM)
Write the answer as a number in µM, unit excluded.

Record excerpt, results attached:
sample_smiles=CC(C)Cc1cc(CNS(=O)(=O)c2ccccc2)nn1-c1ccccc1 target_entity="Voltage-dependent T-type calcium channel subunit alpha-1G (Homo sapiens, UniProt O43497)" unit_tag=µM experimental_value=5.65
sample_smiles=CC(C)Cc1cc(CNS(=O)(=O)CCc2ccccc2)nn1-c1ccccc1 target_entity="Voltage-dependent T-type calcium channel subunit alpha-1G (Homo sapiens, UniProt O43497)" unit_tag=µM experimental_value=12.4

Now, please, on to the next compound.
Task item: Using the record for CC(C)Cc1cc(CNS(=O)(=O)c2cccc(F)c2)nn1-c1ccccc1 , state its measured IC50.
Reply: 3.2

###

Recorded activity at 0.25 h, 10 µM for the following molecules
target-entity: CYP3A4 (Homo sapiens)
test-details: Inhibition of human CYP3A4 assessed as remaining activity at 10 uM using vivid CYP450 substrate measured after 15 mins by fluorescence assay relative to ketoconazole
Type: ADME
experimental-context: probe vivid CYP450 substrate, read-out: Activity
Write the answer as a number in %, unit excluded.

sample_smiles=CC(C)Cc1cc(CNS(=O)(=O)c2ccccc2)nn1-c1ccccc1 experimental_value=69.6
sample_smiles=CC(C)Cc1cc(CNS(=O)(=O)CCc2ccccc2)nn1-c1ccccc1 experimental_value=38.7

Task item: Using the record for CC(C)Cc1cc(CNS(=O)(=O)c2cccc(F)c2)nn1-c1ccccc1 , state its measured activity at 0.25 h, 10 µM.
Reply: 80.1

###

test-details: AUC (0 to infinity) in Sprague-Dawley rat at 10 mg/kg, iv
Format: ADME, organism-based
Parameters: dose 10 mg/kg, route intravenous, time infinity
experimental-context: in vivo
quantity: AUC(0-inf) (ng·h/mL)
Write the answer as a number in ng·h/mL, unit excluded.

Task item: Using the record for CC(C)Cc1cc(CNS(=O)(=O)c2cccc(F)c2)nn1-c1ccccc1 , state its measured AUC(0-inf).
Reply: 2020

###

test-details: Tmax in Sprague-Dawley rat at 10 mg/kg, po
Type: ADME, organism-based
experimental-context: in vivo
quantity: Tmax (h)
Write the answer as a number in h, unit excluded.

Task item: Using the record for CC(C)Cc1cc(CNS(=O)(=O)c2cccc(F)c2)nn1-c1ccccc1 , state its measured Tmax.
Reply: 1.1

###

test-details: Ratio of drug level in brain to plasma in Sprague-Dawley rat at 10 mg/kg, iv at 2 hrs post dose
Assay type: ADME, organism-based
experimental-context: read-out: BPR
quantity: Kp at 2 h

Task item: Using the record for CC(C)Cc1cc(CNS(=O)(=O)c2cccc(F)c2)nn1-c1ccccc1 , state its measured Kp at 2 h.
Reply: 1.4

###

target-entity: Voltage-gated inwardly rectifying potassium channel KCNH2 (Homo sapiens, UniProt Q12809)
test-details: Inhibition of human ERG expressed in CHOK1 cells by whole-cell patch clamp method
quantity: pIC50
The quantity pIC50 is defined as the negative base-10 logarithm of the molar concentration.

sample_smiles=CC(C)Cc1cc(CNS(=O)(=O)c2cccc(F)c2)nn1-c1ccccc1 target_entity="Voltage-gated inwardly rectifying potassium channel KCNH2 (Homo sapiens, UniProt Q12809)" experimental_value=4.84

Task item: Using the record for CC(C)Cc1cc(CNS(=O)(=O)c2ccccc2)nn1-c1ccccc1 , state its measured pIC50.
Reply: 4.68

###

Recorded inhibition for the following molecules
target-entity: Voltage-dependent T-type calcium channel subunit alpha-1H (Homo sapiens, UniProt O95180)
Sequence (O95180 whole entry): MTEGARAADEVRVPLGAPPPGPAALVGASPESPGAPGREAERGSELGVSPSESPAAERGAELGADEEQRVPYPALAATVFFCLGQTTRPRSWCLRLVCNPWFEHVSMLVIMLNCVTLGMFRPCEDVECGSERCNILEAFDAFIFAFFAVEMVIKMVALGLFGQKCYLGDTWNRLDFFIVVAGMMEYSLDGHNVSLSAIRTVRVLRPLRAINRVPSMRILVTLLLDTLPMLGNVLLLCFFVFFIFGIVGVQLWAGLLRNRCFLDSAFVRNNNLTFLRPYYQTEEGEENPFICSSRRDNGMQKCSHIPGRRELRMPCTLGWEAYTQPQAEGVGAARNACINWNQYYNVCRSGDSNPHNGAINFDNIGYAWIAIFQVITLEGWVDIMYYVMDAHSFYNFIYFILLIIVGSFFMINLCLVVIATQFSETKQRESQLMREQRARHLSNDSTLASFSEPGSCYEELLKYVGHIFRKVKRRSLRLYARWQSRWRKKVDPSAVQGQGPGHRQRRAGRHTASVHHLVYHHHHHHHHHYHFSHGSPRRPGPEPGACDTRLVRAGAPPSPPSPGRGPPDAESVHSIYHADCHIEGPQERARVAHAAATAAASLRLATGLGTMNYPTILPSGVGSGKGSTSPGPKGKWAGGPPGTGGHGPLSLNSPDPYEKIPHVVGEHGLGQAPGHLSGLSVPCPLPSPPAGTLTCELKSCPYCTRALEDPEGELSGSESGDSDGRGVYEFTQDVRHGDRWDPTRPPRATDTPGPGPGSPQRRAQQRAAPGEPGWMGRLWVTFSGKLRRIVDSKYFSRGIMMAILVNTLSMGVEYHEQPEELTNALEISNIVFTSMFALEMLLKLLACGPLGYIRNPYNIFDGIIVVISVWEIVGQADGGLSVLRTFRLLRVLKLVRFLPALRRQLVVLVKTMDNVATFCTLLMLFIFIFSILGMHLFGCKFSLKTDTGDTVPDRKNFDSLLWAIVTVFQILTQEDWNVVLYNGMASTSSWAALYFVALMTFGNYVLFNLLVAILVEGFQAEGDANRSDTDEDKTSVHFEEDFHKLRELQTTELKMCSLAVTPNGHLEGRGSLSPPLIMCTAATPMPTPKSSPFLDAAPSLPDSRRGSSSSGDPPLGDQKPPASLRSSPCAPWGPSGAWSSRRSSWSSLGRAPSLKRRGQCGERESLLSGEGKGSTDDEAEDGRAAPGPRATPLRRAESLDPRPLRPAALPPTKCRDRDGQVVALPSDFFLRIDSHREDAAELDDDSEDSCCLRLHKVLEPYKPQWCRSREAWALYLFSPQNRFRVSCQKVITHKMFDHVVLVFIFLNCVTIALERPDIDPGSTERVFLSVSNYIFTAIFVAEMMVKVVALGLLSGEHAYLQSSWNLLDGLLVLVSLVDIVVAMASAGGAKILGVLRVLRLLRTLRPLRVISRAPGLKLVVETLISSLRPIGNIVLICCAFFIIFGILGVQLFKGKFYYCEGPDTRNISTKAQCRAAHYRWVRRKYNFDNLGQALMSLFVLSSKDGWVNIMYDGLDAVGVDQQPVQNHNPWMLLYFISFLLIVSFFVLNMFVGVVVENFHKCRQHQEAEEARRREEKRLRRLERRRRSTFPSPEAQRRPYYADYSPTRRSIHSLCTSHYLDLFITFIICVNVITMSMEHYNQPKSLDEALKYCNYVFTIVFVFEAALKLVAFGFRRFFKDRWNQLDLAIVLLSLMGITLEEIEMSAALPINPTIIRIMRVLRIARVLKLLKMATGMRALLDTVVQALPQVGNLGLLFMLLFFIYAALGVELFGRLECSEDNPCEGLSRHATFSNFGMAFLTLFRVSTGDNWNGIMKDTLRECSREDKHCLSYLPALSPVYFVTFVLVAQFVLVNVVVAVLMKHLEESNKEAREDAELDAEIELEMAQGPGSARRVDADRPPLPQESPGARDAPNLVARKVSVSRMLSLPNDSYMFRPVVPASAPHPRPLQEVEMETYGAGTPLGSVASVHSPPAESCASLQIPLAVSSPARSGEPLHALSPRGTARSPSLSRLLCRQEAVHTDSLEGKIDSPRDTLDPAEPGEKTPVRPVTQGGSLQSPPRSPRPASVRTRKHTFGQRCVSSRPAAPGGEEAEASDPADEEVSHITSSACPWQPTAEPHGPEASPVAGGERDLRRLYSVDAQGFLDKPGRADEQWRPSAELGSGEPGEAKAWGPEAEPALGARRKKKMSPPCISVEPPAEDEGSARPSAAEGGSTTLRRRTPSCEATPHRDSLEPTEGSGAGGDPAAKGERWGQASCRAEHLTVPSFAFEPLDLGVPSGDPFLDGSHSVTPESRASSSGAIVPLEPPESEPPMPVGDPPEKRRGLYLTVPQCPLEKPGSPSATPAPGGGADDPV
test-details: Inhibition of Cav3.2 alpha1H (unknown origin) expressed in HEK293 cells assessed as decrease in KCl-induced depolarization mediated intracellular Ca2+ level at 10 uM by fluo3/AM based high throughput screening assay relative to control
Assay type: cell-based
Write the answer as a number in %, unit excluded.

Record excerpt, results attached:
sample_smiles=CC(C)Cc1cc(CNS(=O)(=O)c2cccc(Cl)c2)nn1-c1ccccc1 quantity=inhibition experimental_value=55.7
sample_smiles=CC(C)Cc1cc(CNS(=O)(=O)c2cccc3cccnc23)nn1-c1ccccc1 quantity=inhibition experimental_value=61.4

Task item: Would you please give the reported inhibition of CC(C)Cc1cc(CNS(=O)(=O)c2ccccc2)nn1-c1ccccc1 with Voltage-dependent T-type calcium channel subunit alpha-1H (Homo sapiens, UniProt O95180)?
Reply: 63.9

Task item: Would you please give the reported inhibition of CC(C)Cc1cc(CNS(=O)(=O)Cc2cccc3ccccc23)nn1-c1ccccc1 with Voltage-dependent T-type calcium channel subunit alpha-1H (Homo sapiens, UniProt O95180)?
Reply: 6.66

###

test-details: Terminal half life in Sprague-Dawley rat at 10 mg/kg, iv
Assay type: ADME, organism-based
experimental-context: in vivo, read-out: beta t1/2
quantity: half-life (min)
Write the answer as a number in min, unit excluded.

Task item: Using the record for CC(C)Cc1cc(CNS(=O)(=O)c2cccc(F)c2)nn1-c1ccccc1 , state its measured half-life.
Reply: 55.7

###

System: Rattus norvegicus
test-details: Antineuropathic pain activity in rat spinal nerve ligation model assessed as effect on mechanical allodynia by measuring frequency of paw withdrawal at 100 mg/kg, po measured at 1 hr relative to control
Assay type: functional
quantity: MPE (%)
Write the answer as a number in %, unit excluded.

Record excerpt, results attached:
sample_smiles=CC(C)Cc1cc(CNS(=O)(=O)c2ccccc2)nn1-c1ccccc1 quantity=MPE experimental_value=45.95
sample_smiles=CC(C)Cc1cc(CNS(=O)(=O)CCc2ccccc2)nn1-c1ccccc1 quantity=MPE experimental_value=-3.8
sample_smiles=NCC1(CC(=O)O)CCCCC1 quantity=MPE experimental_value=11.03

Task item: Using the record for COCC(=O)O[C@]1(CCN(C)CCCc2nc3ccccc3[nH]2)CCc2cc(F)ccc2[C@@H]1C(C)C , state its measured MPE.
Reply: 17.29

Task item: Using the record for CC(C)Cc1cc(CNS(=O)(=O)c2cccc(F)c2)nn1-c1ccccc1 , state its measured MPE.
Reply: 1.63

###

test-details: Drug excretion in Sprague-Dawley rat at 10 mg/kg, iv
Assay type: ADME, organism-based
experimental-context: in vivo, read-out: Drug excretion
quantity: dose excreted (%)
Write the answer as a number in %, unit excluded.

Task item: Using the record for CC(C)Cc1cc(CNS(=O)(=O)c2cccc(F)c2)nn1-c1ccccc1 , state its measured dose excreted.
Reply: 0

###

target-entity: Voltage-dependent T-type calcium channel subunit alpha-1G (Homo sapiens)
test-details: Inhibition of Cav3.1 alpha1G (unknown origin) expressed in HEK293 cells assessed as decrease in KCl-induced depolarization mediated intracellular Ca2+ level at 10 uM by fluo3/AM based high throughput screening assay relative to control
Type: cell-based
quantity: inhibition (%)
Write the answer as a number in %, unit excluded.

sample_smiles=CC(C)Cc1cc(CNS(=O)(=O)c2ccc(C(C)(C)C)cc2)nn1-c1ccccc1 unit_tag=% experimental_value=46.9
sample_smiles=Cc1ccc(F)c(S(=O)(=O)NCc2cc(CC(C)C)n(-c3ccccc3)n2)c1 unit_tag=% experimental_value=54.9
sample_smiles=CC(C)Cc1cc(CNS(=O)(=O)c2cccc(Cl)c2)nn1-c1ccccc1 unit_tag=% experimental_value=57.6
sample_smiles=CC(C)Cc1cc(CNS(=O)(=O)c2c(F)cccc2F)nn1-c1ccccc1 unit_tag=% experimental_value=45.1
sample_smiles=CC(C)Cc1cc(CNS(=O)(=O)Cc2cccc3ccccc23)nn1-c1ccccc1 unit_tag=% experimental_value=7.09

Task item: Using the record for Cc1ccc(S(=O)(=O)NCc2cc(CC(C)C)n(-c3ccccc3)n2)cc1 , state its measured inhibition.
Reply: 57.3

###

test-details: Oral bioavailability in Sprague-Dawley rat at 10 mg/Kg
Format: ADME, organism-based
experimental-context: in vivo
quantity: bioavailability (%)
Write the answer as a number in %, unit excluded.

Task item: Using the record for CC(C)Cc1cc(CNS(=O)(=O)c2cccc(F)c2)nn1-c1ccccc1 , state its measured bioavailability.
Reply: 8.3

This collection of values is drawn from ChEMBL document CHEMBL3872218.
